Molecular target: FGR (Homo sapiens, UniProt P09769)
Construct: purchased Carna Biosciences
Sequence (P09769 whole entry): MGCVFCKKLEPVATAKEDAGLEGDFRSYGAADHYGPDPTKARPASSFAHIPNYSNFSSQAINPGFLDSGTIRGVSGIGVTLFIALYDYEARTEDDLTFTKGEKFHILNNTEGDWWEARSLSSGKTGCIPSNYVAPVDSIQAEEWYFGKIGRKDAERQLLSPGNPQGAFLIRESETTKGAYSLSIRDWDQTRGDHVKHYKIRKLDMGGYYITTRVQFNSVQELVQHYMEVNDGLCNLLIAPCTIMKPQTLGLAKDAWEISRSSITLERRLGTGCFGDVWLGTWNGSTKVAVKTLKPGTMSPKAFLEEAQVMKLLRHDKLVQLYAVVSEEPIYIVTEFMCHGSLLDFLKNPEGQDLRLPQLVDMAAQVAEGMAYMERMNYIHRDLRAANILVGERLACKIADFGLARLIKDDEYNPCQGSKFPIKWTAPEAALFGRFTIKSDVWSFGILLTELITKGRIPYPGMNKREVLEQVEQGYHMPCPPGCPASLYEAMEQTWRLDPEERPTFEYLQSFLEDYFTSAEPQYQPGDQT
Assay: Kinase panel profiling at 1 µmol/L (mobility shift assay, Carna)
Assay type: biochemical
Settings: 1 µmol/L of BTK inhibitor
Criterion: Percentage inhibition of kinase enzyme activity meeting or surpassing 20%. Met: Y. Not met: N.

For orientation, consider the following solved cases.
O=C(c1ccc(Oc2ccccc2)cc1Cl)c1c[nH]c2ncnc(N[C@@H]3CC[C@@H](CO)OC3)c12 Y
C=CC(=O)N1CCC[C@@H](n2nc(-c3ccc(Oc4ccccc4)cc3)c3c(N)ncnc32)C1 Y

Request: Check this compound for Percentage inhibition of kinase enzyme activity at or above 20%: C=CC(=O)N1CCC([C@@H]2CCNc3c(C(N)=O)c(-c4ccc(Oc5ccccc5)cc4)nn32)CC1
Result: N

Request: Check this compound for Percentage inhibition of kinase enzyme activity at or above 20%: COc1ccc(F)cc1C(=O)NCc1ccc(-c2nn([C@@H](C)C(F)(F)F)c(N)c2C(N)=O)cc1
Result: N

Request: Check this compound for Percentage inhibition of kinase enzyme activity at or above 20%: CC#CC(=O)N1CCC[C@H]1c1nc(-c2ccc(C(=O)Nc3ccccn3)cc2)c2c(N)nccn12
Result: N

###

Catalogue of Percentage inhibition of kinase enzyme activity values
Molecular target: PDGFRα (Homo sapiens, UniProt P16234)
Sequence (P16234 24-1089): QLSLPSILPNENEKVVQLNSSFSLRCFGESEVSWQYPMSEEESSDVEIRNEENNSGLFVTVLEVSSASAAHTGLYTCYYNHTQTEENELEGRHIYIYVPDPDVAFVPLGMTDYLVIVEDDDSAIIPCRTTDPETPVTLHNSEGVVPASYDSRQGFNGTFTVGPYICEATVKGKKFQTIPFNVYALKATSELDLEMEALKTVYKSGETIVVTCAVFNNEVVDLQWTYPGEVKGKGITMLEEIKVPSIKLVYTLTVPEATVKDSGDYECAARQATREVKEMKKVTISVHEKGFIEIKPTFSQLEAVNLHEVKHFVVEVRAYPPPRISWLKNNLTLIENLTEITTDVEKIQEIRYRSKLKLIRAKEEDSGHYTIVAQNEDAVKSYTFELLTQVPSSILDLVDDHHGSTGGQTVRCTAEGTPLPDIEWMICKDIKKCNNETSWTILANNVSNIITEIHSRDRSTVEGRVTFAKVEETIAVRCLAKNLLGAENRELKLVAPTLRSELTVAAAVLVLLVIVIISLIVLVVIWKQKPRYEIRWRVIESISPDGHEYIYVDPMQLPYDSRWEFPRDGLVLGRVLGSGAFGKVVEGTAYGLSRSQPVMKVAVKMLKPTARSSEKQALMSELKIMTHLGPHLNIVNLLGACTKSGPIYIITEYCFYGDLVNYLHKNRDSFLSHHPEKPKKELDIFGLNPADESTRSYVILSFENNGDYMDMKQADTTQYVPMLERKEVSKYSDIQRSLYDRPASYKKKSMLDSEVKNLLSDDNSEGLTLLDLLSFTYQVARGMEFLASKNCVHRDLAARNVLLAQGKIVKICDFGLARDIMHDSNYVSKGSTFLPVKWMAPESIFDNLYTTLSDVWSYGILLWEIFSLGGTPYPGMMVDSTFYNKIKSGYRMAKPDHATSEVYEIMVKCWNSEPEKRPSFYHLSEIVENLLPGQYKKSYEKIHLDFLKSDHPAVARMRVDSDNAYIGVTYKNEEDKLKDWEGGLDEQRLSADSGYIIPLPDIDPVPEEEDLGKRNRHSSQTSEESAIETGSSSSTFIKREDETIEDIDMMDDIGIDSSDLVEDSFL
Assay: Kinase enzyme activity assay (mobility shift assay, Carna)
Details: PDGFRα; 1 µmol/L of BTK inhibitor
Report only the number, with the unit % understood.

Before answering, review these 3 worked examples.
Molecule	Numeric Readout
CC#CC(=O)N1CCC[C@H]1c1nc(-c2ccc(C(=O)Nc3ccccn3)cc2)c2c(N)nccn12 [acalabrutinib]	1.38
COc1ccc(F)cc1C(=O)NCc1ccc(-c2nn([C@@H](C)C(F)(F)F)c(N)c2C(N)=O)cc1 [pirtobrutinib]	3.06
C=CC(=O)N1CCC([C@@H]2CCNc3c(C(N)=O)c(-c4ccc(Oc5ccccc5)cc4)nn32)CC1 [zanubrutinib]	3.66

Noted for O=C(c1ccc(Oc2ccccc2)cc1Cl)c1c[nH]c2ncnc(N[C@@H]3CC[C@@H](CO)OC3)c12 [nemtabrutinib] : its Percentage inhibition of kinase enzyme activity reads 88.08

Noted for C=CC(=O)N1CCC[C@@H](n2nc(-c3ccc(Oc4ccccc4)cc3)c3c(N)ncnc32)C1 [ibrutinib] : its Percentage inhibition of kinase enzyme activity reads 94.28

###

Molecular target: HER2 (Homo sapiens)
Construct: purchased Carna Biosciences
Sequence (P04626 23-1255): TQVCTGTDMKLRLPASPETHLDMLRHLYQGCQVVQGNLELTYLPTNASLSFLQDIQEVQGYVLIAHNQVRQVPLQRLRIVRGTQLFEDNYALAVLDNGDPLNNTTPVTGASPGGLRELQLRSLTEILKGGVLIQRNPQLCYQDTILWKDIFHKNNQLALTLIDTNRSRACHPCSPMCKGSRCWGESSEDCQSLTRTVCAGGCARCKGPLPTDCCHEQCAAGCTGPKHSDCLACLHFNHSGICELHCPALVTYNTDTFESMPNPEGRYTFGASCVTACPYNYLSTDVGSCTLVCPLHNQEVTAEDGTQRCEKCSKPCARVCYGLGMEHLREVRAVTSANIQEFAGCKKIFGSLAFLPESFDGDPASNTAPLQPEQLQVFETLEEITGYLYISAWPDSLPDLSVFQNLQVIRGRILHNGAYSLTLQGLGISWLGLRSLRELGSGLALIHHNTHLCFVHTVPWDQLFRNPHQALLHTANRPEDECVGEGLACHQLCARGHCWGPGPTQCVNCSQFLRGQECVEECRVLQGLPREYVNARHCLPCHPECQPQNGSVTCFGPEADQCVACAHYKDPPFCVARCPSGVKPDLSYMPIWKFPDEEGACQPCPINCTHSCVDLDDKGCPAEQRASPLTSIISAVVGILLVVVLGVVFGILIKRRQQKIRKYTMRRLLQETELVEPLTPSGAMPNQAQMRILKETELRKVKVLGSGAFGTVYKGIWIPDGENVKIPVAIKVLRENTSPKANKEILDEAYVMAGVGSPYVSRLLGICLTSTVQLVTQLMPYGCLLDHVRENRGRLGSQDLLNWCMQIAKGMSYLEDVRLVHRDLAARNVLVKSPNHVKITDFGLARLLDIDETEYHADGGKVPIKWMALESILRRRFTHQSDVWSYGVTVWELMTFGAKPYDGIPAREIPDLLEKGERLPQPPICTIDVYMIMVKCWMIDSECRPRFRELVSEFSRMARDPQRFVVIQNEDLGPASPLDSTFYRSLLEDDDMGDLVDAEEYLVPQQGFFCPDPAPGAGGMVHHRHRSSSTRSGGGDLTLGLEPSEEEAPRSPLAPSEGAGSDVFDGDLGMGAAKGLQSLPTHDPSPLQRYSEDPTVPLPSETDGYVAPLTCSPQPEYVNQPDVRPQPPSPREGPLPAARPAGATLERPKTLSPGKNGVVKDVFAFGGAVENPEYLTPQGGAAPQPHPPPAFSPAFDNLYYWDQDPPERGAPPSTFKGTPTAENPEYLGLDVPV
Assay: Kinase panel profiling at 1 µmol/L (mobility shift assay, Carna)
Assay type: biochemical
Conditions: 1 µmol/L of BTK inhibitor
Attribute Measured: Percentage inhibition of kinase enzyme activity (%)
Report only the number, with the unit % understood.

Before answering, review these 3 worked examples.
Compound	Numeric Readout
CC#CC(=O)N1CCC[C@H]1c1nc(-c2ccc(C(=O)Nc3ccccn3)cc2)c2c(N)nccn12 [acalabrutinib]	16.11
O=C(c1ccc(Oc2ccccc2)cc1Cl)c1c[nH]c2ncnc(N[C@@H]3CC[C@@H](CO)OC3)c12 [nemtabrutinib]	99.89
C=CC(=O)N1CCC[C@@H](n2nc(-c3ccc(Oc4ccccc4)cc3)c3c(N)ncnc32)C1 [ibrutinib]	100.31

Noted for C=CC(=O)N1CCC([C@@H]2CCNc3c(C(N)=O)c(-c4ccc(Oc5ccccc5)cc4)nn32)CC1 [zanubrutinib] : its Percentage inhibition of kinase enzyme activity reads 98.58

Noted for COc1ccc(F)cc1C(=O)NCc1ccc(-c2nn([C@@H](C)C(F)(F)F)c(N)c2C(N)=O)cc1 [pirtobrutinib] : its Percentage inhibition of kinase enzyme activity reads 35.83
